# ASSAY NOTES: Excretion study in SD rats following single subcutaneous administration
# Type: in vivo, SD rat
# RUN PARAMETERS: male, Sprague-Dawley, rat, urine + feces, sc, 10 mg/kg
Peptide text beside a SMILES is read from it.
OUTCOME MEASURE: dose excreted at 8 h (%)
Numbers only; they are read as %.

Q: Specify dose excreted at 8 h for CC(C)[C@@H](NC(=O)[C@H](N)Cc1ccc(O)cc1)C(=O)N[C@H](CC(=O)O)C(=O)N[C@H](CCCCN)C(=O)N[C@H](CCCNC(=N)N)C(=O)O [FC-12738, (D-Tyr)-(D-Val)-(D-Asp)-(D-Lys)-(D-Arg)] (HELM PEPTIDE1{[dY].[dV].[dD].[dK].[dR]}$$$$V2.0) and stop.
Result: 78.2

----------
# ASSAY NOTES: Single rising dose pharmacokinetics in beagle dogs
# Assay type: in vivo, beagle dog
# RUN PARAMETERS: male, beagle, dog, plasma, sc, 25 mg/kg
Peptide text beside a SMILES is read from it.
OUTCOME MEASURE: AUC(0-t)
Entry format: amount then unit.

Q: Annotate the compound CC(C)[C@@H](NC(=O)[C@H](N)Cc1ccc(O)cc1)C(=O)N[C@H](CC(=O)O)C(=O)N[C@H](CCCCN)C(=O)N[C@H](CCCNC(=N)N)C(=O)O [FC-12738, (D-Tyr)-(D-Val)-(D-Asp)-(D-Lys)-(D-Arg)] (HELM PEPTIDE1{[dY].[dV].[dD].[dK].[dR]}$$$$V2.0) with its measured AUC(0-t).
Result: 72800 ng·h/mL

----------
# ASSAY NOTES: Tissue distribution in SD rats after single subcutaneous injection
# Assay type: in vivo, SD rat
# RUN PARAMETERS: male, SD, rat, plasma, sc, 10 mg/kg
Peptide text beside a SMILES is read from it.
OUTCOME MEASURE: level at 2 h (ng/mL)
Your answer should be a plain number; it is taken to be in ng/mL.

Q: Consider the compound CC(C)[C@@H](NC(=O)[C@H](N)Cc1ccc(O)cc1)C(=O)N[C@H](CC(=O)O)C(=O)N[C@H](CCCCN)C(=O)N[C@H](CCCNC(=N)N)C(=O)O [FC-12738, (D-Tyr)-(D-Val)-(D-Asp)-(D-Lys)-(D-Arg)] (HELM PEPTIDE1{[dY].[dV].[dD].[dK].[dR]}$$$$V2.0) . State its measured level at 2 h.
Result: 1790

----------
# ASSAY NOTES: In vitro protein binding, rapid equilibrium dialysis
# Format: in vitro ADME
# RUN PARAMETERS: SD, rat, plasma
Peptide text beside a SMILES is read from it.
OUTCOME MEASURE: fraction unbound at 6 h, 10 µM
Lab note: jot down the number only; don't add units.

Q: Report fraction unbound at 6 h, 10 µM, nothing else, for this compound: CC(C)[C@@H](NC(=O)[C@H](N)Cc1ccc(O)cc1)C(=O)N[C@H](CC(=O)O)C(=O)N[C@H](CCCCN)C(=O)N[C@H](CCCNC(=N)N)C(=O)O [FC-12738, (D-Tyr)-(D-Val)-(D-Asp)-(D-Lys)-(D-Arg)] (HELM PEPTIDE1{[dY].[dV].[dD].[dK].[dR]}$$$$V2.0)
Result: 0.493

Values compiled from paper doi:10.1101/2023.04.18.537371v1.
